All values here come from patent US20050060764A1.

Test system: rat RANKL mRNA
Assay: Antisense inhibition of rat RANKL mRNA levels in UMR-106 cells, quantitative real-time PCR (Table 3)
Assay type: cell-based
Set-up: concentration or dose not given beside the values
Details: averages from three experiments
Strand notation (5' to 3'): a small letter for the sugar, then the base; units joined by * are phosphorothioate-linked, units joined directly phosphodiester-linked; [ ] holds rarer units or linkages, { } end groups; capitals alone tell only the bases. e = 2'-O-(2-methoxyethyl) (MOE); [5mC] = 5-methylcytosine; d = 2'-deoxy (DNA)
MEASUREMENT_LABEL: % INHIB (inhibition of rat RANKL mRNA levels)

# SUBSTANCE, OBSERVED_MEASUREMENT
records = [
    ("tttgcacggccccttgaaag (eT*eT*eT*eG*e[5mC]*dA*d[5mC]*dG*dG*d[5mC]*d[5mC]*d[5mC]*d[5mC]*dT*dT*eG*eA*eA*eA*eG; antisense) [ISIS 286605, 2′-MOE gapmer targeted to rat RANKL]", "at least 40%"),
    ("286606 (antisense eT*eG*eT*eA*eA*dT*dT*d[5mC]*d[5mC]*d[5mC]*dT*dT*dT*dG*d[5mC]*eA*e[5mC]*eG*eG*e[5mC]) [compound 286606]", "37%"),
    ("aaaccatcatttctctgcaa (eA*eA*eA*e[5mC]*e[5mC]*dA*dT*d[5mC]*dA*dT*dT*dT*d[5mC]*dT*d[5mC]*eT*eG*e[5mC]*eA*eA; antisense) [ISIS 286653, 2′-MOE gapmer targeted to rat RANKL]", "at least 40%"),
    ("286646 (antisense eT*eT*eT*eT*eG*dT*dA*d[5mC]*dA*dA*d[5mC]*dG*dT*dG*dG*eG*e[5mC]*e[5mC]*eA*e[5mC]) [compound 286646]", "53%"),
    ("286652 (e[5mC]*eT*e[5mC]*eT*eG*d[5mC]*dA*dA*dT*dG*dT*dA*dA*d[5mC]*dG*eG*eT*eA*e[5mC]*e[5mC]; antisense) [compound 286652]", "53%"),
]

###

Tested on: mouse RANKL mRNA
Experiment: Antisense inhibition of mouse RANKL mRNA levels in C2C12 cells, quantitative real-time PCR (Table 2)
Type: cell-based
Parameters: concentration or dose not given beside the values
Conditions: averages from three experiments
Strand notation (5' to 3'): a small letter for the sugar, then the base; units joined by * are phosphorothioate-linked, units joined directly phosphodiester-linked; [ ] holds rarer units or linkages, { } end groups; capitals alone tell only the bases. e = 2'-O-(2-methoxyethyl) (MOE); [5mC] = 5-methylcytosine; d = 2'-deoxy (DNA)
MEASUREMENT_LABEL: % INHIB (inhibition of mouse RANKL mRNA levels) (%)

# SUBSTANCE, OBSERVED_MEASUREMENT
rows = [
    ("180815 (antisense eT*e[5mC]*eA*eT*eA*d[5mC]*dA*d[5mC]*d[5mC]*dG*dT*dG*dG*dG*d[5mC]*e[5mC]*eA*eT*eG*eT) [compound 180815]", 30),
    ("180794 (antisense e[5mC]*e[5mC]*eG*eG*e[5mC]*dG*d[5mC]*dA*dT*dG*dG*d[5mC]*dG*d[5mC]*dG*eG*e[5mC]*eG*e[5mC]*e[5mC]) [compound 180794]", 0),
    ("180833 (antisense e[5mC]*eA*eG*eA*eG*dA*d[5mC]*dA*dA*dT*dG*d[5mC]*dT*dT*dT*eT*eA*eT*eT*eG) [compound 180833]", 22),
    ("180821 (antisense e[5mC]*eA*eT*eT*eA*d[5mC]*dA*d[5mC]*d[5mC]*dT*dG*dA*dA*dA*dT*eA*eT*eA*eA*e[5mC]) [compound 180821]", 15),
]
